Biological target: Progesterone receptor (Homo sapiens)
Sequence (P06401 whole entry): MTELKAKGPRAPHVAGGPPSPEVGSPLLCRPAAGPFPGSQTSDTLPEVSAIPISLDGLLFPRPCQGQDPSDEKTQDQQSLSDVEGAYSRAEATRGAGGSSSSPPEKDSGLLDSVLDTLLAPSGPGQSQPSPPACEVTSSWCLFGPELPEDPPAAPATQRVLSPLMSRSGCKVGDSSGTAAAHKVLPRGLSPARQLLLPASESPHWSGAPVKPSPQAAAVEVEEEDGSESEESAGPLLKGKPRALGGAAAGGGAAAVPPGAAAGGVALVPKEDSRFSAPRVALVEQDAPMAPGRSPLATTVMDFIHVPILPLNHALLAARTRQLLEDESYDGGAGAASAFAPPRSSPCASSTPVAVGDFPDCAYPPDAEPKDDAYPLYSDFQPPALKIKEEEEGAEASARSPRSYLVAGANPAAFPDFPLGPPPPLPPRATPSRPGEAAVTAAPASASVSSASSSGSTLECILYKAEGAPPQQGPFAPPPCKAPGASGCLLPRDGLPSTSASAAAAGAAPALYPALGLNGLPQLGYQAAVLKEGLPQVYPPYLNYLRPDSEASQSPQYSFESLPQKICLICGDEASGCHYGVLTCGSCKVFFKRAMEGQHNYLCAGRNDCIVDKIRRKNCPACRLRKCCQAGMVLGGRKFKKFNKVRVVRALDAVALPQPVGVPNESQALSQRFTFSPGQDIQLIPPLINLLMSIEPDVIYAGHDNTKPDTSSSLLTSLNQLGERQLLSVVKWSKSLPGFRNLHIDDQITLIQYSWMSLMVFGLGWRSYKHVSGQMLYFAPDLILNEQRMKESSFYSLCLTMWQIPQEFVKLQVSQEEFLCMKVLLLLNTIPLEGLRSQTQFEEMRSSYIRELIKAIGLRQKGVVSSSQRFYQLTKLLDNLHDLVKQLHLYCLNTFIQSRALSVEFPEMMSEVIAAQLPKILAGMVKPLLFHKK
measurement_type: Ki (nM)
Give a bare numeral; the unit nM is implied.

Could you please provide reported Ki for COc1c(O)ccc2c1-c1ccc3c(c1/C(=C/c1cccc(O)c1)O2)C(C)=CC(C)(C)N3 ? Thanks!
750

----------
Target: Glucocorticoid receptor (Homo sapiens)
Sequence (P04150 whole entry): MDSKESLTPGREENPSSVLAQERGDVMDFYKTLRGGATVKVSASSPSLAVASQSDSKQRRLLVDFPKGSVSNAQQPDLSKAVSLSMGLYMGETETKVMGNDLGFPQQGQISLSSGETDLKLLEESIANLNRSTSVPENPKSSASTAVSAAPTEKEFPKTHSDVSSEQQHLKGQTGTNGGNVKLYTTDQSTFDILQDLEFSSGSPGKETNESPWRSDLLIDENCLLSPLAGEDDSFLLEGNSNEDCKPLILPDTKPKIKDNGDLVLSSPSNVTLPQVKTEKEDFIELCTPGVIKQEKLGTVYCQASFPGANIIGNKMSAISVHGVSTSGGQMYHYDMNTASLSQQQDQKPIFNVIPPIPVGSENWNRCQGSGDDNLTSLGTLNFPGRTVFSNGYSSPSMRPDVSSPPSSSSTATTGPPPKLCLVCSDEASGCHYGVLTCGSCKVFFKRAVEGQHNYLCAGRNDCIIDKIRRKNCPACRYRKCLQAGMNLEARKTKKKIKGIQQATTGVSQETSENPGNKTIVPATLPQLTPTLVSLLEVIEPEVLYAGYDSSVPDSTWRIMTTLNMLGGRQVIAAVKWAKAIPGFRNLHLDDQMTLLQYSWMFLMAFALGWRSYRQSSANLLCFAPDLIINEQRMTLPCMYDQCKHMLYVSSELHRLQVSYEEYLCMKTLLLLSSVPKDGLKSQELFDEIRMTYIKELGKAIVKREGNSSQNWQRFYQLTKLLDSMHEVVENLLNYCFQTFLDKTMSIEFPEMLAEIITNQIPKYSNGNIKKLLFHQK
Assay type: functional
Description: Agonist activity at GR by GRE activation assay
measurement_type: EC50 (nM)

{"columns": ["substance_smiles", "test_target", "units_text", "EC50"],
 "data": [
  ["COc1c(O)ccc2c1-c1ccc3c(c1/C(=C/c1ccccc1-c1ccccc1)O2)C(C)=CC(C)(C)N3", "Glucocorticoid receptor (Homo sapiens)", "nM", 4.5],
  ["COc1c(O)ccc2c1-c1ccc3c(c1/C(=C/c1ccc(O)cc1)O2)C(C)=CC(C)(C)N3", "Glucocorticoid receptor (Homo sapiens)", "nM", 1.1],
  ["COc1c(O)ccc2c1-c1ccc3c(c1/C(=C/c1ccc(C)cc1)O2)C(C)=CC(C)(C)N3", "Glucocorticoid receptor (Homo sapiens)", "nM", 38]
]}

(A) COc1c(O)ccc2c1-c1ccc3c(c1/C(=C/c1ccccc1C)O2)C(C)=CC(C)(C)N3
(B) COc1c(O)ccc2c1-c1ccc3c(c1/C(=C/c1ccc(Cl)cc1)O2)C(C)=CC(C)(C)N3
(C) COc1c(O)ccc2c1-c1ccc3c(c1/C(=C/c1ccccc1Cl)O2)C(C)=CC(C)(C)N3
(D) COc1c(O)ccc2c1-c1ccc3c(c1/C(=C/c1cccc(C)n1)O2)C(C)=CC(C)(C)N3
(E) COc1c(O)ccc2c1-c1ccc3c(c1/C(=C/c1cccc(O)c1)O2)C(C)=CC(C)(C)N3
# ascending order, key=EC50 Labels, requested order.
D, E, A, C, B
(D: 0.7 nM, E: 1.5 nM, A: 3.4 nM, C: 18 nM, B: 43 nM)

(I) COc1c(O)ccc2c1-c1ccc3c(c1/C(=C/c1ccccc1F)O2)C(C)=CC(C)(C)N3
(II) COc1c(O)ccc2c1-c1ccc3c(c1/C(=C/c1ccc(C(C)C)cc1)O2)C(C)=CC(C)(C)N3
Given I and given II , which shows the smaller recorded EC50? Identify your selection by its label.
I
